experiment: Human HepG2 cell viability assay in 384 well format; type: toxicity, cell-based; design: dose 125 nL, time 70.5 hour; concentration not given beside the values; settings: HepG2 cells, read-out: Inhibition
Consider the following compounds; for each one, report its cytotoxicity at 70.5 h.
Output spec: scalar in %, unitless text.

stdin: Provide measured cytotoxicity at 70.5 h value, entry: COCCN1CCO[C@H]2CCN(C(=O)c3ccnnc3)CC[C@@H]21
stdout: -8.98

stdin: Answer with the recorded cytotoxicity at 70.5 h for the compound listed here: CC(C)Oc1cc(N2CCCC(O)C2)nc(N)n1 (stereo not drawn)
stdout: 7.95

stdin: Let me know recorded cytotoxicity at 70.5 h for O=C(CCn1ccc2ccc(Cl)cc21)NCc1ccc(C(=O)O)cc1 , thanks.
stdout: -0.8

stdin: Give recorded cytotoxicity at 70.5 h. CC(CNC(=O)c1cc(Cn2cnc3ccccc32)[nH]n1)N1CCCC1 (stereo not drawn)
stdout: -7.82

stdin: Name the recorded cytotoxicity at 70.5 h of the item Cc1sc2nc(CCN)nc(N3CCC(N4CCCC4)CC3)c2c1C in your answer.
stdout: -4.21

stdin: Recall and state the measured cytotoxicity at 70.5 h for C=Cn1ncc(CN2C[C@@H]3CCCN3C[C@H]2Cc2ccccc2)c1C .
stdout: 14.6

stdin: Please supply the value of reported cytotoxicity at 70.5 h for the item O=C(c1csnn1)N1CCc2[nH]nc(COc3cccc(Cl)c3)c2C1
stdout: -2.42

stdin: Return the recorded cytotoxicity at 70.5 h value; entry: O=C(NCCN1CCCS1(=O)=O)c1scnc1Cl
stdout: -24.6

stdin: Indicate the recorded cytotoxicity at 70.5 h value for this compound: O=C(c1cccc(CO)n1)N1CCCC1c1nc2cc(F)ccc2[nH]1 (stereo not drawn)
stdout: 16.2

stdin: Answer with reported cytotoxicity at 70.5 h of O=C(CCc1ccccc1)NCC1CCN(Cc2ccccc2)CC1
stdout: 0.0668

stdin: Note down cytotoxicity at 70.5 h recorded for CCOCCCNC(=O)C1(C)CCC(=O)N1c1cc(OC)ccc1OC (stereo not drawn)
stdout: -2.77

stdin: Give cytotoxicity at 70.5 h for O=C(c1csc(C2CC2)n1)N1CCCC1Cn1cccn1 (stereo not drawn)
stdout: 0.252

stdin: Look up cytotoxicity at 70.5 h of O=C(CN1CCCC(c2ccn[nH]2)C1)N1CCCc2ccccc21 (stereo not drawn) and report it.
stdout: 15.3

stdin: Assign cytotoxicity at 70.5 h to the following record: Cc1ccc(C(=O)O)cc1-c1cccc2c1CCNC2
stdout: -21

stdin: Please give measured cytotoxicity at 70.5 h of the following entry: Cc1cccc(CNc2nnc(C(C)C)o2)c1
stdout: 0.308

stdin: Identify measured cytotoxicity at 70.5 h corresponding to CSc1nccn1-c1ccc(C(=O)NCC2CC2)cc1
stdout: -4.68

stdin: Hello, please tell me recorded cytotoxicity at 70.5 h for this one: C[C@@H]1CN(Cc2ccncc2)C[C@@]1(O)C1CC1
stdout: -11.5

stdin: Read the entry CC(C)c1nc(CN2CCN(C(C)c3nc(C4CC4)no3)CC2)no1 (stereo not drawn) and write its reported cytotoxicity at 70.5 h.
stdout: -4.05

stdin: Please look at this compound and report its cytotoxicity at 70.5 h: CO[C@H]1CN(S(=O)(=O)c2ccc(F)cc2)C[C@@]12CCCO2
stdout: 36.6

stdin: Note down cytotoxicity at 70.5 h recorded for O=C(c1ccncc1)N1C[C@@H]2CCN(c3cccnc3)C[C@@H]2C1
stdout: -16.9

stdin: For the compound CN(CCCc1n[nH]c(N)c1C#N)C(=O)Nc1cc(Cl)cc(Cl)c1 , give its reported cytotoxicity at 70.5 h.
stdout: -11.9

stdin: Give the measured cytotoxicity at 70.5 h for O=C(Cc1ccccn1)N1C[C@@H](Oc2cccnc2)[C@H]2OCCC[C@H]21
stdout: 28.2

stdin: Quickly give me recorded cytotoxicity at 70.5 h for COCCOc1ccccc1C(=O)Nc1c(C)cnn1CC1CC1
stdout: -6.01
